These entries and their values trace back to paper PMC9466626.

For each of the compounds below, state its pIC50.
Biological target: EGFR^WT (Homo sapiens, UniProt P00533)
Construct: purchased Sigma
Sequence (P00533 25-1210): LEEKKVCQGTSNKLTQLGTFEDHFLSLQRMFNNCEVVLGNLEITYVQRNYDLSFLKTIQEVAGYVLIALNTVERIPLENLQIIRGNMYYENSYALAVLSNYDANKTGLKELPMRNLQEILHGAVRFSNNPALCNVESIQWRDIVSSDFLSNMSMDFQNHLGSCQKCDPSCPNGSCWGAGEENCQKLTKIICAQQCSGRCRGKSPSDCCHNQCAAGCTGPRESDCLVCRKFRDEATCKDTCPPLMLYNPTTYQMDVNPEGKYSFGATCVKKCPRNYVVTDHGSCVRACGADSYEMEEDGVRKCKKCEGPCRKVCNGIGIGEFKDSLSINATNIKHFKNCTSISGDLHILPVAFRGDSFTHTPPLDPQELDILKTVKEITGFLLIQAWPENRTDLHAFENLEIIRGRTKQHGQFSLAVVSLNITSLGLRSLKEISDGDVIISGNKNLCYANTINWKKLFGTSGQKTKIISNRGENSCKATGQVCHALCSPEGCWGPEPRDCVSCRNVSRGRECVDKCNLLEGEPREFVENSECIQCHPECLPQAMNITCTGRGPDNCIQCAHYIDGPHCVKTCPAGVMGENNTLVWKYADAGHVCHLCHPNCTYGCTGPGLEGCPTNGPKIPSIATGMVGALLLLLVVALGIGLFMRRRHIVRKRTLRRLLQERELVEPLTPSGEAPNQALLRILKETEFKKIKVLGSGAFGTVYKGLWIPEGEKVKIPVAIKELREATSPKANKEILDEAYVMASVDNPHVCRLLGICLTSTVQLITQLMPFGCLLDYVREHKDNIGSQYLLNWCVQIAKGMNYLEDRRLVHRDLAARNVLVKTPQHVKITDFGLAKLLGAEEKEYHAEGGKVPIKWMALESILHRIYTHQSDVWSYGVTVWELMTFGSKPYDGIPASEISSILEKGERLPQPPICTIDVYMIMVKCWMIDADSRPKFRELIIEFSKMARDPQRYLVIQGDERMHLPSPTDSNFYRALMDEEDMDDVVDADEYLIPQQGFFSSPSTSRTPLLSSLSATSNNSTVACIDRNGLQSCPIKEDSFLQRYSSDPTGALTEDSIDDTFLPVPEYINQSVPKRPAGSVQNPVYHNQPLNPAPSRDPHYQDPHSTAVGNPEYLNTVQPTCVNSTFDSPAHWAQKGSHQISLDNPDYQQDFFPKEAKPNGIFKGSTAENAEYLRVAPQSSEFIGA
Experiment: EGFR^WT kinase inhibitory assay (HTRF)
Assay type: biochemical
Details: HTRF, mean of three experiments; read-out: EGFR^WT IC50
Description: In vitro EGFR inhibitory activity was assessed using a Homogeneous time-resolved fluorescence (HTRF) assay[56] as described in Supplementary data. 4.1.1. EGFRWT and EGFRT790M kinase inhibitory assay […] against four cancer cell lines were further examined for their inhibitory activities against both […] Homogeneous time resolved fluorescence (HTRF) assay was applied in this test. […]
Reminder that pIC50 means the negative base-10 logarithm of the concentration expressed in mol/L.

Prompt line: Field request: pIC50 | item: `c1ccc(Nc2nc(Nc3ccccc3)c3cnn(-c4ccccc4)c3n2)cc1`
Response line: 7.59

Prompt line: Field request: pIC50 | item: CC(=NNc1nc(Nc2ccccc2)nc2c1cnn2-c1ccccc1)c1ccccc1 [Compound 12a]
Response line: 7.68

Prompt line: Field request: pIC50 | item: `NNc1nc(Nc2ccccc2)nc2c1cnn2-c1ccccc1`
Response line: 7.64

Prompt line: Field request: pIC50 | item: CC(=NNc1nc(Nc2ccccc2)nc2c1cnn2-c1ccccc1)c1ccc(Cl)cc1 [Compound 12b]
Response line: 7.80
